Biological target: PPARγ (Homo sapiens, UniProt P37231)
Construct: purchased Invitrogen Corporation, Carlsbad, Calif
Sequence (P37231 238-503 limits assumed): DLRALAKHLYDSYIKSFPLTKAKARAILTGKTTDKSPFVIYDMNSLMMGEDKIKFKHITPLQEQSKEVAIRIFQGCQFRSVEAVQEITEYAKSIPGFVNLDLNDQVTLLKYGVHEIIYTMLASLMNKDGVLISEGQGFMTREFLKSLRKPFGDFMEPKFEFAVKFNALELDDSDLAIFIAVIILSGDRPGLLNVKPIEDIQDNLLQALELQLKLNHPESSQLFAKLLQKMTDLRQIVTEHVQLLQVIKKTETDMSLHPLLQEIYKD
Assay: Commercial PPARγ binding assay (Invitrogen, PPAR-LBD/Fluormone PPAR Green complex)
Conditions: compound at 100 μM; average (SEM) of three experiments in quadruplicate
The reader will find reported Activation of PPARγ values listed item by item below.

CCc1ccc([C@H](O)COc2ccc(CC3(C)SC(=O)NC3=O)cc2)nc1 (stereo partly shown) ... 164 (20)
CCc1ccc(C(=CCO)COc2ccc(CC3SC(=O)NC3=O)cc2)nc1 (stereo not shown) ... 108 (5)
CCc1ccc([C@@H](O)COc2ccc(CC3(C)SC(=O)NC3=O)cc2)nc1 (stereo partly shown) ... 186 (16)

Turning now to a further compound:
GET /value?item= CCc1ccc(C(=O)COc2ccc(CC3SC(=O)NC3=O)cc2)nc1 (stereo not shown) &field=Activation of PPARγ returns 170 (35)

Data credit: patent US20090143441A1
